system: Aβ42 (Homo sapiens)
Sequence (P05067 672-713): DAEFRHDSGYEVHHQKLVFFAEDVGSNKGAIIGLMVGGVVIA
assay.text: Th-T (thioflavin-T) assay of Aβ42 aggregation
Type: biochemical
experimental.conditions: compound at 10; reading M46 of time course
assay.readout: Th-T fluorescence, mean of three wells
Answers are plain numbers.

molecule: C=C1CC[C@@H]2[C@](C)(CC[C@H]3O[C@H](C=C(C)C)C[C@@]23C)[C@@H]1Cc1c(OC)oc(CO)c(C)c1=O
Th-T fluorescence, mean of three wells: 3.474
--
molecule: C=C1CC[C@@H]2[C@](C)(CC[C@H]3O[C@H](C=C(C)C)C[C@@]23C)[C@@H]1Cc1c(OC)oc(CO)c(C(=O)OC)c1=O
Th-T fluorescence, mean of three wells: 0.2644
--
molecule: C=C1CCC2C(C)(CCC=C(C)C)C(O)CCC2(C)C1Cc1c(OC)oc(CO)c(C(=O)OC)c1=O (centres unmarked)
Th-T fluorescence, mean of three wells: 1.436
--
molecule: C=C1CCC2C(C)(CCC=C(C)C)C(O)CCC2(C)C1Cc1c(OC)oc(C)c(C(=O)OC)c1=O (centres unmarked)
Th-T fluorescence, mean of three wells: 2.517

# get_value(readout= Th-T fluorescence, mean of three wells, system= Aβ42 (Homo sapiens)) for C=C1CCC2C(C)(CCC=C(C)C)C(O)CCC2(C)C1Cc1c(OC)oc(CO)c(C)c1=O (centres unmarked)
3.378
